Recorded values, source the supplement of paper PMC8728848.

# System name: GalNAc(b1-3)GalNAc
# Assay info: glycan array binding signal (z-score within array); higher = stronger binding
# Condition description: glycan notation: IUPAC condensed, linker removed
The sample as a whole holds a higher share of the strongest signals than the screen did.
Exercise: state measured glycan array binding signal (z-score) for each of the binders provided.
Numbers only.

Use the examples below as a reference point.
{"Binder": "AFL6 (Aspergillus fumigatus), Q4WKJ1 (protein) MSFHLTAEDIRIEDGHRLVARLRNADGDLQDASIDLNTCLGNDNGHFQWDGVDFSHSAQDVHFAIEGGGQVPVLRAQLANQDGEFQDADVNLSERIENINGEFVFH", "glycan array binding signal (z-score)": -0.414}
{"Binder": "CBM40 CPF071 (Clostridium perfringens) (protein) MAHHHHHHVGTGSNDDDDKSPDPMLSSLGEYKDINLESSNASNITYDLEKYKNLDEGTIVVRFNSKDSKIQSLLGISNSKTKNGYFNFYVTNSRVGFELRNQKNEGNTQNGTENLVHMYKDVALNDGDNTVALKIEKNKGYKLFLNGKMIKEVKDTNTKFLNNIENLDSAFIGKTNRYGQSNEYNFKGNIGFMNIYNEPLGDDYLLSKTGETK", "glycan array binding signal (z-score)": 0.09}

Please find the next binder below.
Input: Query glycan array binding signal (z-score) for F17aG (Escherichia coli), Q99003 (protein) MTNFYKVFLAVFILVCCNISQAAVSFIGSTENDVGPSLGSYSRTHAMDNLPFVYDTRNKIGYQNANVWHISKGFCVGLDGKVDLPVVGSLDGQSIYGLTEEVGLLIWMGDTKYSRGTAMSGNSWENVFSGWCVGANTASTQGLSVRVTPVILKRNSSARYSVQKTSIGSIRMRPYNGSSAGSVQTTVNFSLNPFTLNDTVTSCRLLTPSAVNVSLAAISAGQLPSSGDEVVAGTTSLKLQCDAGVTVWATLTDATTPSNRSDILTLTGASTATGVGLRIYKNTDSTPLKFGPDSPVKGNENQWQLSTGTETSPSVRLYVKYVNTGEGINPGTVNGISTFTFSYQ
Output: 1.69
